# Tested on: OVCAR-5 ovarian
# Test: NCI tumour cell line growth inhibition, 48 h; in the data active = GI50 below about 0.43 µM; inactive = the rest
Possible outcomes: YES = active, NO = inactive

Compound: COc1ccc(/C=C/c2cc(N3CCOCC3)c3cc(F)c(F)cc3n2)cc1OC
Group: NO
--
Compound: COc1cc2c3c(n(CCN(C)C)c(=O)c2cc1OC)-c1cc2c(cc1C3=O)OCO2
Group: NO
--
Compound: CC1OC(OC2CC(O)C3(CO)C4C(O)CC5(C)C(C6=CC(=O)OC6)CCC5(O)C4CCC3(O)C2)C(O)C(O)C1O (stereo not drawn)
Group: YES

* * *

# reported TGI; entries follow
# Tested on: SF-539 CNS
# Test: NCI tumour cell line growth inhibition, 48 h

Molecule: Cc1ccc(-n2c(Cn3nnc(-c4cccnc4)n3)nn(C3OC(COC(=O)c4ccccc4)C(OC(=O)c4ccccc4)C3OC(=O)c3ccccc3)c2=S)cc1 (stereo not drawn)
TGI: > 100 µM

Molecule: COc1ccccc1S(=O)Nc1ccccc1 (stereo not drawn)
TGI: > 100 µM

Molecule: CCOC(=O)c1cccc([N+](=O)[O-])c1N
TGI: > 100 µM

* * *

# Test system: HT29 colon
# Test: NCI tumour cell line growth inhibition, 48 h

Molecule: COC(=O)Nc1nc2cc3c(cc2s1)OCCO3
Subject Of Test: HT29 colon
TGI: > 50 µM
//
Molecule: CC1(C)CC2C=C(C=O)C3(C=O)CC3(C)C2C1 (centres undefined)
Subject Of Test: HT29 colon
TGI: 4.54 µM
//
Molecule: Cc1ccc2[nH]c3[nH]c(=O)[nH]c(=O)c3c2c1
Subject Of Test: HT29 colon
TGI: > 100 µM
//
Molecule: COc1c(CNC(=O)CCl)cc2[nH]c(C)cc2c1CNC(=O)CCl
Subject Of Test: HT29 colon
TGI: 25.2 µM
//
Molecule: CC1=C[C@]2(CC(C)C3C(CC4(C)C5CCC6C(C)(C)C(=O)CC[C@@]67C[C@@]57CC[C@]34C)O2)OC1=O (some centres undefined)
Subject Of Test: HT29 colon
TGI: > 100 µM
//
Molecule: CCCCN(CCCC)CCCN=c1nc2c(c(N)n1-c1ccccc1)c(=S)n(-c1ccccc1)c(=S)n2-c1ccccc1
Subject Of Test: HT29 colon
TGI: 0.784 µM
//
Molecule: CCN(CC)CCCC(Nc1c2ccc(Cl)cc2nc2ccc(OC)cc12)c1ccc(F)cc1 (centres undefined)
Subject Of Test: HT29 colon
TGI: 9.87 µM
//
Molecule: Cc1cc2c(cc1C)[n+](=O)c(C(=O)N1CCN(c3ccc([N+](=O)[O-])cc3)CC1)c(C)n2[O-]
Subject Of Test: HT29 colon
TGI: > 100 µM
//
Molecule: O=C(O)C1c2ccccc2C(C(=O)O)c2ccccc21 (centres undefined)
Subject Of Test: HT29 colon
TGI: > 100 µM

* * *

# System: NCI/ADR-RES ovarian
# Test: NCI tumour cell line growth inhibition, 48 h

Compound: COc1ccc(C2=C(c3cc(OC)c(OC)c(OC)c3)C(=O)CC2)cc1
TGI: > 100 µM

Compound: COc1ccc2c(=O)c3cc([N+](=O)[O-])ccc3n(C)c2c1
TGI: > 100 µM

Compound: CN(C)CC(CO)(CN(C)C)CN(C)C
TGI: > 100 µM

Compound: CC(=O)Nc1cc2c(cc1O)CC[C@@H]1[C@@H]2CC[C@]2(C)[C@@H](O)CC[C@@H]12
TGI: 55.9 µM

Compound: CN1c2ccccc2S(=O)(=O)n2c(COc3ccc(Cl)cc3)nnc21
TGI: > 100 µM

Compound: CN(C)CCCNc1nccc(-c2c(-c3ccc(F)cc3)nn3cc(C(F)(F)F)ccc23)n1
TGI: > 25 µM

Compound: CCC1CC(=O)N(SCC(N)C(=O)O)C1=O (configuration not stated)
TGI: > 100 µM

Compound: CCOC(=O)c1cc2c([nH]1)C(=O)CC1=C2CCN1Cc1ccccc1
TGI: 43.5 µM

Compound: CC[C@@H](C(=O)[C@@H](C)[C@@H](O)[C@H](C)[C@@H]1O[C@@H]([C@@H](CC)C(=O)O)CC[C@@H]1C)[C@H]1OC2(C=C[C@@H](O)[C@]3(CC[C@@](C)([C@H]4CC[C@](O)(CC)[C@H](C)O4)O3)O2)[C@H](C)C[C@@H]1C (some centres not stated)
TGI: > 50 µM

Compound: CC(/C=C/c1ccc([N+](=O)[O-])o1)=N/N1CC(CN2CCOCC2)OC1=O (configuration not stated)
TGI: 95.9 µM

Compound: COP1(=O)NCc2ncccc2O1 (configuration not stated)
TGI: > 100 µM

Compound: Nc1nc(NNc2ccc(Cl)c(Cl)c2)cc(=O)[nH]1
TGI: > 100 µM

Compound: CCCCNC(=O)Nc1c(C(N)=O)c2n(c1C(=O)OCC)CCCCC2
TGI: > 100 µM

Compound: COc1ccc(-n2c(C)nc3ccc(NC4OCC(O)C(O)C4O)cc3c2=O)cc1 (configuration not stated)
TGI: > 100 µM

Compound: Cc1ccc(/C(=C/C=C(C#N)C#N)Sc2cc(Cl)ccc2Cl)cc1
TGI: 7.58 µM

Compound: CCN(CC)C(=S)SC1CCOP(=O)(N(CCCl)CCCl)N1C (configuration not stated)
TGI: > 100 µM

Compound: O=C1c2ccccc2C(=O)N1CCCCCCNOCCCN1C(=O)c2ccccc2C1=O
TGI: 70 µM

Compound: O=P1(Oc2ccc(Cl)cc2)OCCS1 (configuration not stated)
TGI: > 100 µM

Compound: O=S1(=O)CS(=O)(=O)OCCCO1
TGI: > 100 µM

Compound: COc1cc([C@@H]2c3cc4c(cc3[C@H](O)[C@H]3COC(=O)[C@H]23)OCO4)cc(OC)c1OC
TGI: < 0.005 µM

Compound: CC(=O)OC(C)(C)N=Nc1ccc(Br)cc1
TGI: 76.7 µM

Compound: OCC1OC(n2nc(-c3ccccc3)nc2-c2cnccn2)C(O)C1O (configuration not stated)
TGI: > 100 µM
